Attribution: PubChem BioAssay (EPA / NIEHS)

- Read-out: Monokine induced gamma interferon (MIG), CXCL9 (gene 4283)
- Assay explanation: BSK_BE3C_MIG: BioMAP Diversity Plus: BE3C Assay for Monokine induced gamma interferon (MIG) Biomarker Activity (AID 2283035);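 note: MIG protein measured by ELISA in BE3C cultures after 24 h of dosing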
- Study conditions: primary human bronchial epithelial cells; actives raise or lower the signal
Active and inactive are the calls of the source. Rule for the calls: active = hit-call score of the fitted dose curve at least 0.9, where 1 is the maximum; inactive = score below 0.9.
Pick one and only one: y = active, n = inactive

These solved cases illustrate the format of a correct answer.
Inquiry: I'd appreciate the recorded outcome for O=C(O)Cc1ccccc1Nc1c(Cl)cccc1Cl from this test.
Reply text: n

Inquiry: I'd appreciate the recorded outcome for Cc1c(C(=O)O)c(O)cc2c1C(=O)c1c(O)c([C@@H]3O[C@H](CO)[C@@H](O)[C@H](O)[C@H]3O)c(O)c(O)c1C2=O from this test.
Reply text: n

Inquiry: I'd appreciate the recorded outcome for CCCCCCCC=O from this test.
Reply text: n

Further cases:
Inquiry: I'd appreciate the recorded outcome for C=CCc1ccc(O)c(OC)c1 from this test.
Reply text: n

Inquiry: I'd appreciate the recorded outcome for Cc1cc(=O)[nH]c(=S)[nH]1 from this test.
Reply text: n

Inquiry: I'd appreciate the recorded outcome for C[Si]1(C)O[Si](C)(C)O[Si](C)(C)O[Si](C)(C)O1 from this test.
Reply text: n

Inquiry: I'd appreciate the recorded outcome for COC(=O)c1ccc(O)cc1 from this test.
Reply text: n

Inquiry: I'd appreciate the recorded outcome for O=[N+]([O-])C(CO)(CO)CO from this test.
Reply text: n

----------
- Assay explanation: ATG_TGFb_CIS: Attagene CIS-FACTORIAL HepG2 Assay for human Transforming Growth Factor (TGF) (AID 2282967)
- Study conditions: HepG2 Attagene CIS TGFb reporter, mRNA transcription; actives raise or lower the signal
- Procedure: ATG_CIS is a cell-based, multiplexed-readout assay that uses HepG2, a human liver cell line, with measurements taken at 24 hours after chemical dosing in a 24-well plate.ATG_TGFb_CIS is one of 52 assay component(s) measured or calculated from the ATG_CIS assay. […] This assay endpoint, ATG_TGFb_CIS, was analyzed with bidirectional fitting relative to DMSO as the negative control and baseline of activity. […]
The source made the active and inactive calls. The calls were made as follows: active = hit-call score of the fitted dose curve at least 0.9, where 1 is the maximum; inactive = score below 0.9.
Pick one and only one: true = active, false = inactive

Inquiry: I'd appreciate the recorded outcome for Oc1ccc2c(c1)OC[C@@H](N1CCC(O)(c3ccc(F)cc3)CC1)[C@H]2O from this test.
Reply text: true

Inquiry: I'd appreciate the recorded outcome for OC[C@@H](O)[C@@H](O)[C@H](O)[C@H](O)CO from this test.
Reply text: false

Inquiry: I'd appreciate the recorded outcome for O=c1[nH]cc(F)c(=O)[nH]1 from this test.
Reply text: false

Further cases:
Inquiry: I'd appreciate the recorded outcome for Cc1ccc(C)c(O)c1C from this test.
Reply text: false

Inquiry: I'd appreciate the recorded outcome for CN[C@H]1CC[C@@H](c2ccc(Cl)c(Cl)c2)c2ccc(S(N)(=O)=O)cc21 from this test.
Reply text: false

----------
- Assay explanation: Tanguay_ZF_120hpf_CFIN_legacy: (Legacy) Oregon State University Tanguay Lab 120 Hour Post-fertilization zebrafish Assay for Caudal Fin Malformation (AID 2283649)
Results filed as inconclusive are left out. Calls of active or inactive are those of the source. How the source made its calls: active means hit-call score of the fitted dose curve at least 0.9, where 1 is the maximum; inconclusive means response in the unintended direction; inactive means score below 0.9.
Pick one and only one: 1 (yes) = active, 0 (no) = inactive

Inquiry: I'd appreciate the recorded outcome for CN1CCN(Cc2cc(-c3ccc4[nH]c(=O)oc4c3)co2)[C@@H](c2ccc(F)cc2)C1 from this test.
Reply text: 0 (no)

Inquiry: I'd appreciate the recorded outcome for CCCCCC(=O)O from this test.
Reply text: 0 (no)

Inquiry: I'd appreciate the recorded outcome for O=c1c(O)c(-c2ccc(O)c(O)c2)oc2cc(O)cc(O)c12 from this test.
Reply text: 0 (no)

Inquiry: I'd appreciate the recorded outcome for CC(=O)OC/C=C(\C)CCC=C(C)C from this test.
Reply text: 0 (no)

Inquiry: I'd appreciate the recorded outcome for OC[C@@H](O)[C@@H](O)[C@H](O)[C@H](O)CO from this test.
Reply text: 0 (no)

Further cases:
Inquiry: I'd appreciate the recorded outcome for CC1(C)NC(=O)NC1=O from this test.
Reply text: 0 (no)

Inquiry: I'd appreciate the recorded outcome for NC(=O)Cn1c(=O)cc(CCN2CCN(c3nccc4sccc34)CC2)c2ccc(F)cc21 from this test.
Reply text: 0 (no)

----------
- Tgt: Estrogen receptor (Homo sapiens) (UniProt P03372)
- Sequence (P03372 whole entry, looked up): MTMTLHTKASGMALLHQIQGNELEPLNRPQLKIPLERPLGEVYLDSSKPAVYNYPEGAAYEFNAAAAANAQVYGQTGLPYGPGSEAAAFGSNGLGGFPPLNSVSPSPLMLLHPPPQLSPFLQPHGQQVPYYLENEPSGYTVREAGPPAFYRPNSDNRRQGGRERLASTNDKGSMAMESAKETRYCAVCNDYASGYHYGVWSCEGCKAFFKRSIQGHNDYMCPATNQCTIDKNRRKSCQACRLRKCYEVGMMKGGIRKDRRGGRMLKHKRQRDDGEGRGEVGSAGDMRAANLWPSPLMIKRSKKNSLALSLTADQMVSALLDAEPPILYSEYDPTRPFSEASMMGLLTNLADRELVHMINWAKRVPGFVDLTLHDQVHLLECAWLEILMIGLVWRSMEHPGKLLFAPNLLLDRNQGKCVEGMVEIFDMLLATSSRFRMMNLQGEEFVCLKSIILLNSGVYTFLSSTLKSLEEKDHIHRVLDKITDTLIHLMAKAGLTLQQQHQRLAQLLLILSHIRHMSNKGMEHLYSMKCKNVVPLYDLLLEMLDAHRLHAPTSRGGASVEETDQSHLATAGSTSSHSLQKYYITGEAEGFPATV
- Assay explanation: OT_ERa_GFPERaERE_0120: Odyssey Thera (OT) 2-hour HeLa Transcription Induction Assay for Estrogen Receptor (AID 2283382)
- Description: OT_ERa_GFPERaERE_0120 is a cell-based, single-readout assay that uses HeLa, a human cervix cell line, with measurements taken at 2 hours after chemical dosing in a 384-well plate.OT_ERa_GFPERaERE_0120 is one of one assay component(s) measured or calculated from the OT_ERa_GFPERaERE_0120 assay. […] This assay endpoint, OT_ERa_EREGFP_0120, was analyzed in the positive analysis fitting direction relative to DMSO as the negative control and baseline of activity. […]
Active and inactive are the calls of the source. The calls were made as follows: active = hit-call score of the fitted dose curve at least 0.9, where 1 is the maximum; inconclusive = response in the unintended direction; inactive = score below 0.9.
Pick one and only one: active, inactive

Inquiry: I'd appreciate the recorded outcome for CCOC(=O)C(C)(C)Oc1ccc(Cl)cc1 from this test.
Reply text: inactive

Inquiry: I'd appreciate the recorded outcome for O=C(OCCCCCOC(=O)c1ccccc1)c1ccccc1 from this test.
Reply text: inactive

Inquiry: I'd appreciate the recorded outcome for Cc1ccc(C)c(C)c1 from this test.
Reply text: inactive

Inquiry: I'd appreciate the recorded outcome for CC(=O)C(C)=CC1C(C)=CCCC1(C)C (centres undefined) from this test.
Reply text: active

Inquiry: I'd appreciate the recorded outcome for CCCCCCCCCCCCCCCCCC(=O)O from this test.
Reply text: inactive

Inquiry: I'd appreciate the recorded outcome for CNC(=O)[C@H]1O[C@@H](n2cnc3c(NCc4cc(Cl)ccc4OCc4cc(C)no4)ncnc32)[C@H](O)[C@@H]1N from this test.
Reply text: inactive

Inquiry: I'd appreciate the recorded outcome for OC[C@@H](O)[C@@H](O)[C@H](O)[C@H](O)CO from this test.
Reply text: inactive

Inquiry: I'd appreciate the recorded outcome for c1cc(-c2ccncc2)ccn1 from this test.
Reply text: inactive

Inquiry: I'd appreciate the recorded outcome for CC(=O)OC/C=C(\C)CCC=C(C)C from this test.
Reply text: inactive

Inquiry: I'd appreciate the recorded outcome for CC(=O)Oc1ccccc1C(=O)O from this test.
Reply text: inactive

Further cases:
Inquiry: I'd appreciate the recorded outcome for O=c1c(O)c(-c2ccc(O)c(O)c2)oc2cc(O)cc(O)c12 from this test.
Reply text: active

Inquiry: I'd appreciate the recorded outcome for CC=Cc1ccc(O)c(OC)c1 from this test.
Reply text: inactive

Inquiry: I'd appreciate the recorded outcome for CCCCOC(=O)CCCCCCCCC(=O)OCCCC from this test.
Reply text: inactive

Inquiry: I'd appreciate the recorded outcome for CCOC(=O)CCC(=O)OCC from this test.
Reply text: inactive

Inquiry: I'd appreciate the recorded outcome for NCC1(Cc2noc(=O)[nH]2)CCCCC1 from this test.
Reply text: inactive

Inquiry: I'd appreciate the recorded outcome for CCCCCC(=O)O from this test.
Reply text: inactive

Inquiry: I'd appreciate the recorded outcome for CCCCCCOCCO from this test.
Reply text: inactive

Inquiry: I'd appreciate the recorded outcome for C[Si]1(C)O[Si](C)(C)O[Si](C)(C)O[Si](C)(C)O1 from this test.
Reply text: inactive

Inquiry: I'd appreciate the recorded outcome for CCCCCCCCCCCCCCCC from this test.
Reply text: inactive

Inquiry: I'd appreciate the recorded outcome for COc1ccc(S(=O)(=O)N2C(=O)[C@@](c3ccccc3OC)(N3C[C@H](O)C[C@H]3C(=O)N(C)C)c3cc(Cl)ccc32)c(OC)c1 from this test.
Reply text: inactive

Inquiry: I'd appreciate the recorded outcome for Cc1ccccc1Cl from this test.
Reply text: inactive

Inquiry: I'd appreciate the recorded outcome for COc1cc(-c2nc(NC(=O)c3cc4cc(C)cc(C)c4n3CC(=O)O)sc2CCC2CCCCC2)c(OC)cc1Cl from this test.
Reply text: inactive

----------
- Assay explanation: TOX21_p53_BLA_p4_viability: Viability Assessment in the Tox21 HCT-116 p53 Agonism Beta-lactamase Assay, Phase 4 (AID 2283597);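 note: hits lower the luminescence signal meaning cytotoxicity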
Records with an inconclusive call do not appear. Active and inactive are the calls of the source. Rule for the calls: active = hit-call score of the fitted dose curve at least 0.9, where 1 is the maximum; inconclusive = response in the unintended direction; inactive = score below 0.9.
Pick one and only one: active, inactive

These solved cases illustrate the format of a correct answer.
Inquiry: I'd appreciate the recorded outcome for CNC(=O)[C@H]1O[C@@H](n2cnc3c(NCc4cc(Cl)ccc4OCc4cc(C)no4)ncnc32)[C@H](O)[C@@H]1N from this test.
Reply text: inactive

Inquiry: I'd appreciate the recorded outcome for CC1(C)CC(N=C=O)CC(C)(CN=C=O)C1 (stereo unspecified) from this test.
Reply text: inactive

Inquiry: I'd appreciate the recorded outcome for Cc1cccc([N+](=O)[O-])c1C from this test.
Reply text: inactive

Inquiry: I'd appreciate the recorded outcome for CC(=O)Oc1ccccc1C(=O)O from this test.
Reply text: inactive

Further cases:
Inquiry: I'd appreciate the recorded outcome for NC(=O)Cn1c(=O)cc(CCN2CCN(c3nccc4sccc34)CC2)c2ccc(F)cc21 from this test.
Reply text: inactive

Inquiry: I'd appreciate the recorded outcome for Oc1ccc2c(c1)OC[C@@H](N1CCC(O)(c3ccc(F)cc3)CC1)[C@H]2O from this test.
Reply text: inactive

Inquiry: I'd appreciate the recorded outcome for CCOc1ccc2c(c1)C(C)=CC(C)(C)N2 from this test.
Reply text: inactive

Inquiry: I'd appreciate the recorded outcome for CN1CCN(Cc2cc(-c3ccc4[nH]c(=O)oc4c3)co2)[C@@H](c2ccc(F)cc2)C1 from this test.
Reply text: inactive

Inquiry: I'd appreciate the recorded outcome for CC1=C(/C=C/C(C)=C/C=C/C(C)=C/CO)C(C)(C)CCC1 from this test.
Reply text: active
